Source listed as the kinase profiling compilation of Christmann-Franck et al. (2016).

target: PRKCQ (human) (UniProt Q04759); test: split-luciferase competition binding; conditions: compound 10.0 µM
Sequence (Q04759 whole entry, looked up): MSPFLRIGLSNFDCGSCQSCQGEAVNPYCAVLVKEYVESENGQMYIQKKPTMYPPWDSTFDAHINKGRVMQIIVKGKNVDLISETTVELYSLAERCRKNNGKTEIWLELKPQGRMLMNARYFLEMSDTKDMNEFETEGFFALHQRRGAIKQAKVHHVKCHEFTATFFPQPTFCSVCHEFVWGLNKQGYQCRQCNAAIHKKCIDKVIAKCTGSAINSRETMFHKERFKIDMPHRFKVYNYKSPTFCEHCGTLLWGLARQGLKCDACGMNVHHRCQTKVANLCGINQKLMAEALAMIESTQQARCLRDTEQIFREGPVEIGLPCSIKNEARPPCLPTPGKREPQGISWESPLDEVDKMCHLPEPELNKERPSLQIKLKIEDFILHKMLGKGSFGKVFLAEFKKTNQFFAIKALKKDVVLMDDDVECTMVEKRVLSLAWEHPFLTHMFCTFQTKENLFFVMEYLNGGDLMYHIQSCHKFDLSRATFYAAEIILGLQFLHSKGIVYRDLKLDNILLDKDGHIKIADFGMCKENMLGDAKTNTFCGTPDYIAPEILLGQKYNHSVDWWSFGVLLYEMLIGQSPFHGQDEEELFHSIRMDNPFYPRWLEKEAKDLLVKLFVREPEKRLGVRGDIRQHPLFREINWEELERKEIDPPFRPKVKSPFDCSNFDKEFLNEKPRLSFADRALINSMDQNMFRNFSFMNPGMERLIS
Consider the following compounds; for each one, report its inhibition.
Hi! Could you send only the number? It should be in %, unit omitted.

Answer with the recorded inhibition of O=C1NC(=O)c2cc(Nc3ccc(F)cc3)c(Nc3ccc(F)cc3)cc21 only.
12

Answer with the recorded inhibition of Oc1ccc(-c2nc(-c3ccc(F)cc3)c(-c3ccncc3)[nH]2)cc1 only.
0

Answer with the recorded inhibition of O=C1Nc2ccc(I)cc2/C1=C/c1cc(Br)c(O)c(Br)c1 only.
0

Answer with the recorded inhibition of O=C1NC(=O)c2c1c1c3ccccc3n3c1c1c2c2ccccc2n1C1CCC3O1 only.
82

Answer with the recorded inhibition of Brc1c(Br)c(Br)c2[nH]nnc2c1Br only.
0

Answer with the recorded inhibition of Cc1ccccc1C(=O)c1ccc(Nc2ccc(Br)cc2N)cc1Cl only.
0

Answer with the recorded inhibition of COc1cc2ncn(-c3cc(OCc4ccccc4C(F)(F)F)c(C(N)=O)s3)c2cc1OC only.
23

Answer with the recorded inhibition of Cc1ccc(-c2nn(C(C)(C)C)c3ncnc(N)c23)cc1 only.
0

###

Consider the following compounds; for each one, report its inhibition.
target: AURKC (human); assay: split-luciferase competition binding; conditions: compound 10.0 µM
Hi! Could you send only the number? It should be in %, unit omitted.

Answer with the recorded inhibition of N#C/C(=C(/N)Sc1ccc(N)cc1)c1ccccc1C(F)(F)F only.
0

Answer with the recorded inhibition of N#C/C(=C\c1ccc(O)c(O)c1)C(=O)NCc1ccccc1 only.
10

Answer with the recorded inhibition of O=c1cc(N2CCOCC2)oc2c(-c3ccccc3)cccc12 only.
0

Answer with the recorded inhibition of O=C(Nc1cc(C(F)(F)F)cc(C(F)(F)F)c1)c1cc(Cl)ccc1O only.
0

Answer with the recorded inhibition of CCN(CC)CCCCN1c2ccccc2Oc2ccc(Cl)cc21 only.
16

Answer with the recorded inhibition of COc1cc(CC2C(=O)OC[C@@H]2Cc2ccc(OC)c(OC)c2)ccc1O (stereo partly specified) only.
6

Answer with the recorded inhibition of Cc1ccccc1C(=O)c1ccc(Nc2ccc(Br)cc2N)cc1Cl only.
0

Answer with the recorded inhibition of Cn1cc(C2=C(c3ccc(Cl)cc3Cl)C(=O)NC2=O)c2ccccc21 only.
0

Answer with the recorded inhibition of Cc1ccc(-c2nn(C(C)(C)C)c3ncnc(N)c23)cc1 only.
0

Answer with the recorded inhibition of O=C1Nc2ccc(I)cc2/C1=C/c1cc(Br)c(O)c(Br)c1 only.
0

Answer with the recorded inhibition of COc1cc2ncnc(Nc3ccc(F)c(Cl)c3)c2cc1OCCCN1CCOCC1 only.
19

###

tested on: PRKACA (mouse); test: split-luciferase competition binding; conditions: compound 10.0 µM; accession and sequence are those of the human protein
Consider the following molecules; for each one, report its inhibition.
Hi! Could you send only the number? It should be in %, unit omitted.

Answer with the recorded inhibition of COc1cc2c(Nc3ccc(NC(=O)c4ccccc4)cc3)ncnc2cc1OCCCN1CCOCC1 only.
7

Answer with the recorded inhibition of Cc1ccc(NC(=O)c2cccc(N(C)C)c2)cc1NC(=O)c1ccc(O)cc1 only.
7

Answer with the recorded inhibition of COc1cc2ncnc(Nc3ccc(F)c(Cl)c3)c2cc1OCCCN1CCOCC1 only.
1

Answer with the recorded inhibition of COc1cc(CC2C(=O)OC[C@@H]2Cc2ccc(OC)c(OC)c2)ccc1O (stereo partly specified) only.
0

Answer with the recorded inhibition of CN(C)CCCn1cc(C2=C(c3c[nH]c4ccccc34)C(=O)NC2=O)c2ccccc21 only.
26

Answer with the recorded inhibition of Fc1ccc(Cl)cc1-c1nc(Nc2ccncc2)c2nccnc2n1 only.
21

Answer with the recorded inhibition of CC1=C(O)C(=O)[C@@H]2OC2C1=O (stereo partly specified) only.
0

Answer with the recorded inhibition of N#C/C(=C(/N)Sc1ccc(N)cc1)c1ccccc1C(F)(F)F only.
2

Answer with the recorded inhibition of c1ccc(-c2n[nH]cc2-c2ccnc3ccccc23)nc1 only.
1

Answer with the recorded inhibition of O=C(c1ccc(Nc2nccc(-c3cc4ccccc4s3)n2)cc1)N1CCC(N2CCCC2)CC1 only.
12

Answer with the recorded inhibition of CCN(CC)CCCCN1c2ccccc2Oc2ccc(Cl)cc21 only.
0

###

Consider the following compounds; for each one, report its inhibition.
target: PRKCE (human) (UniProt Q02156); assay: split-luciferase competition binding; details: compound 10.0 µM
Sequence (Q02156 whole entry, looked up): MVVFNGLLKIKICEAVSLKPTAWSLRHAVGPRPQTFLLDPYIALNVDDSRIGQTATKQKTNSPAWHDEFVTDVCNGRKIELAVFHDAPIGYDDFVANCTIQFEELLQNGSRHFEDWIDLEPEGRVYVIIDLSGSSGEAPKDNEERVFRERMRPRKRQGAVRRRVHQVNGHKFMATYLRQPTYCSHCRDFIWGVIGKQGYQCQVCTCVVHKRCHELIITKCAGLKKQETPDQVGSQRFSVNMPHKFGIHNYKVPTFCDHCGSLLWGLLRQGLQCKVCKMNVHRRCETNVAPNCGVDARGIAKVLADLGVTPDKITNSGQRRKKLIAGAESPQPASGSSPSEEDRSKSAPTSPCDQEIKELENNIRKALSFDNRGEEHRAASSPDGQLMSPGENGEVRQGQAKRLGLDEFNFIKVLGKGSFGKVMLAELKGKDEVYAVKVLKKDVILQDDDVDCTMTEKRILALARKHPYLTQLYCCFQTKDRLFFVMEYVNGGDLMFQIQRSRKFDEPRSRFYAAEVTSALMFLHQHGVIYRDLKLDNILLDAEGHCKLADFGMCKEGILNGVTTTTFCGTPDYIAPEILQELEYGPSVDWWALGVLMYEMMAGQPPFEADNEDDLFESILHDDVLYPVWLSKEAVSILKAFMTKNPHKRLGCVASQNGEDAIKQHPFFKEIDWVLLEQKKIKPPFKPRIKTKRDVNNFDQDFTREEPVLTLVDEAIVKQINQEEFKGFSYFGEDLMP
Hi! Could you send only the number? It should be in %, unit omitted.

Answer with the recorded inhibition of NC(=O)c1ccc(-c2nc(-c3ccccn3)c(-c3ccc4c(c3)OCCO4)[nH]2)cc1 only.
1

Answer with the recorded inhibition of CC(C)[C@H](CO)Nc1nc(Nc2ccc(C(=O)O)c(Cl)c2)c2ncn(C(C)C)c2n1 only.
2

Answer with the recorded inhibition of O=S(=O)(c1cccc2c(O)nccc12)N1CCCNCC1 only.
0

Answer with the recorded inhibition of CC[C@@H](CO)Nc1nc(NCc2ccccc2)c2ncn(C(C)C)c2n1 only.
0

Answer with the recorded inhibition of COc1cc2nccc(Oc3ccc(NC(=O)Nc4ccc(F)cc4F)c(F)c3)c2cc1OC only.
0

###

Consider the following compounds; for each one, report its inhibition.
biological target: UniProt Q96GD4; assay: split-luciferase competition binding; conditions: compound 10.0 µM
Sequence (Q96GD4 whole entry, looked up): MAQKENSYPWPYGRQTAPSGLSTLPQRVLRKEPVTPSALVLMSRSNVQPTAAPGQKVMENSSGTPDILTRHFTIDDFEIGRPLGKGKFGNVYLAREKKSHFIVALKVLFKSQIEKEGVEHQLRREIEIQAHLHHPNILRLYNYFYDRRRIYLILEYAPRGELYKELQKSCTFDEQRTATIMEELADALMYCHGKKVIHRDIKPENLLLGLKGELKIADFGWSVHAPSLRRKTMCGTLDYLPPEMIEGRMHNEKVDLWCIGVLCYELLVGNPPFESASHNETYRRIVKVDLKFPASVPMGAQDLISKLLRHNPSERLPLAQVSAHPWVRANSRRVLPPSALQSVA
Hi! Could you send only the number? It should be in %, unit omitted.

Lab note: record inhibition of O=c1cc(N2CCOCC2)oc2c1ccc1ccccc12 tested on UniProt Q96GD4.
7

Lab note: record inhibition of O=c1cc(N2CCOCC2)oc2c(-c3ccccc3)cccc12 tested on UniProt Q96GD4.
0

Lab note: record inhibition of Nc1ncnc2[nH]nc(Nc3ccc(F)cc3)c12 tested on UniProt Q96GD4.
14

Lab note: record inhibition of O=S(=O)(c1cccc2cnccc12)N1CCCNCC1 tested on UniProt Q96GD4.
0

Lab note: record inhibition of Cc1ccc(-c2nn(C(C)(C)C)c3ncnc(N)c23)cc1 tested on UniProt Q96GD4.
0

Lab note: record inhibition of O=S(=O)(NCCNC/C=C/c1ccc(Br)cc1)c1cccc2cnccc12 tested on UniProt Q96GD4.
2

Lab note: record inhibition of O=C1NC(=O)c2c1c1c3ccccc3n3c1c1c2c2ccccc2n1C1CCC3O1 tested on UniProt Q96GD4.
60

Lab note: record inhibition of CN(C)CCCn1cc(C2=C(c3c[nH]c4ccccc34)C(=O)NC2=O)c2ccccc21 tested on UniProt Q96GD4.
0

Lab note: record inhibition of C/C(O)=C(\C#N)C(=O)Nc1cc(Br)ccc1Br tested on UniProt Q96GD4.
0

Lab note: record inhibition of NC(=O)c1ccc(-c2nc(-c3ccccn3)c(-c3ccc4c(c3)OCCO4)[nH]2)cc1 tested on UniProt Q96GD4.
0

Lab note: record inhibition of COc1cc(CC2C(=O)OC[C@@H]2Cc2ccc(OC)c(OC)c2)ccc1O (some centres not stated) tested on UniProt Q96GD4.
0

Lab note: record inhibition of Cc1cc(I)ccc1Nc1c(C(=O)NOCC2CC2)cc(F)c(F)c1F tested on UniProt Q96GD4.
4

Lab note: record inhibition of O=S(=O)(c1cccc2c(O)nccc12)N1CCCNCC1 tested on UniProt Q96GD4.
14

Lab note: record inhibition of O=c1cc(N2CCOCC2)nc2c3ccccc3ccn12 tested on UniProt Q96GD4.
0

Lab note: record inhibition of CCN(CC)CCNC(=O)c1c(C)[nH]c(/C=C2\C(=O)Nc3ccc(F)cc32)c1C tested on UniProt Q96GD4.
22

Lab note: record inhibition of Cc1cc2nc3c(=O)[nH]c(=O)nc-3n(C)c2cc1C=O tested on UniProt Q96GD4.
3

Lab note: record inhibition of CO[C@@H]1[C@H](N(C)C(=O)c2ccccc2)C[C@H]2O[C@]1(C)n1c3ccccc3c3c4c(c5c6ccccc6n2c5c31)C(=O)NC4 tested on UniProt Q96GD4.
44

Lab note: record inhibition of N#C/C(=C\c1ccc(O)c(O)c1)C(N)=S tested on UniProt Q96GD4.
0

Lab note: record inhibition of NC(=O)c1ccc(-c2nc(-c3ccccn3)c(-c3ccc4c(c3)OCO4)[nH]2)cc1 tested on UniProt Q96GD4.
0

Lab note: record inhibition of O=C(c1ccc(Nc2nccc(-c3cc4ccccc4s3)n2)cc1)N1CCC(N2CCCC2)CC1 tested on UniProt Q96GD4.
32

Lab note: record inhibition of CN1CC[C@H](c2c(O)cc(O)c3c(=O)cc(-c4ccccc4Cl)oc23)[C@H](O)C1 tested on UniProt Q96GD4.
0

Lab note: record inhibition of Cn1cc(C2=C(c3cn(CCCSC(=N)N)c4ccccc34)C(=O)NC2=O)c2ccccc21 tested on UniProt Q96GD4.
13

###

biological target: AKT3 (human); assay: split-luciferase competition binding; settings: compound 10.0 µM
readout type: inhibition (%)
Hi! Could you send only the number? It should be in %, unit omitted.

Lab note: record inhibition of N#CC(=C(\N)Sc1ccccc1N)/C(C#N)=C(/N)Sc1ccccc1N tested on AKT3 (human).
0

Lab note: record inhibition of O=S(=O)(c1cccc2c(Cl)cccc12)N1CCCNCC1 tested on AKT3 (human).
0

Lab note: record inhibition of CS(=O)c1ccc(-c2nc(-c3ccc(F)cc3)c(-c3ccncc3)[nH]2)cc1 (stereo unspecified) tested on AKT3 (human).
0

Lab note: record inhibition of Cc1cc2nc3c(=O)[nH]c(=O)nc-3n(C)c2cc1C=O tested on AKT3 (human).
0

Lab note: record inhibition of O=C(c1ccc(Nc2nccc(-c3cc4ccccc4s3)n2)cc1)N1CCC(N2CCCC2)CC1 tested on AKT3 (human).
0

Lab note: record inhibition of Cc1cc(F)c(Nc2ncnc3cc(OCc4ccccc4)ccc23)cc1O tested on AKT3 (human).
0

Lab note: record inhibition of CN(C)CCCn1cc(C2=C(c3c[nH]c4ccccc34)C(=O)NC2=O)c2ccccc21 tested on AKT3 (human).
37

Lab note: record inhibition of CC(C)[C@H](CO)Nc1nc(Nc2cc(N)cc(Cl)c2)c2ncn(C(C)C)c2n1 tested on AKT3 (human).
0

Lab note: record inhibition of Cc1[nH]c(/C=C2\C(=O)Nc3ccc(S(=O)(=O)Cc4c(Cl)cccc4Cl)cc32)c(C)c1C(=O)N1CCC[C@@H]1CN1CCCC1 tested on AKT3 (human).
0

Lab note: record inhibition of CC(C)[C@H](CO)Nc1nc(Nc2ccc(C(=O)O)c(Cl)c2)c2ncn(C(C)C)c2n1 tested on AKT3 (human).
0

Lab note: record inhibition of Cn1cnc2c(NCc3ccccc3)nc(NCCO)nc21 tested on AKT3 (human).
0

Lab note: record inhibition of O=C(Nc1cc(C(F)(F)F)cc(C(F)(F)F)c1)c1cc(Cl)ccc1O tested on AKT3 (human).
0

Lab note: record inhibition of CC[C@@H](CO)Nc1nc(NCc2ccccc2)c2ncn(C(C)C)c2n1 tested on AKT3 (human).
0

Lab note: record inhibition of CCN(CC)CCNC(=O)c1c(C)[nH]c(/C=C2\C(=O)Nc3ccc(F)cc32)c1C tested on AKT3 (human).
26

Lab note: record inhibition of O=S(=O)(c1cccc2cnccc12)N1CCCNCC1 tested on AKT3 (human).
0

Lab note: record inhibition of COc1cc2ncnc(Nc3ccc(F)c(Cl)c3)c2cc1OCCCN1CCOCC1 tested on AKT3 (human).
0

Lab note: record inhibition of Nc1ccc(-c2cccc3c(=O)cc(N4CCOCC4)oc23)cc1 tested on AKT3 (human).
0

Lab note: record inhibition of Cc1ccccc1C(=O)c1ccc(Nc2ccc(Br)cc2N)cc1Cl tested on AKT3 (human).
0

Lab note: record inhibition of Brc1c(Br)c(Br)c2[nH]nnc2c1Br tested on AKT3 (human).
0

Lab note: record inhibition of O=C1NC(=O)c2cc(Nc3ccc(F)cc3)c(Nc3ccc(F)cc3)cc21 tested on AKT3 (human).
0

Lab note: record inhibition of CO[C@@H]1[C@H](N(C)C(=O)c2ccccc2)C[C@H]2O[C@]1(C)n1c3ccccc3c3c4c(c5c6ccccc6n2c5c31)C(=O)NC4 tested on AKT3 (human).
31
